Listed here: compounds with reported IC50 for COVID-19 (nCoV-2019, SARS-CoV2) Mpro (Severe acute respiratory syndrome coronavirus 2).

compound: N#C[C@H](C[C@@H]1CCCNC1=O)NC(=O)[C@@H]1CC2(CN1C(=O)c1cc3cccc(Cl)c3[nH]1)CC(F)(F)C2 (single isomer, unassigned) [743 (Isomer 1)]
system-name: COVID-19 (nCoV-2019, SARS-CoV2) Mpro (Severe acute respiratory syndrome coronavirus 2)
IC50: > 30 µM
//
compound: COc1cccc2[nH]c(C(=O)N3CC4(C[C@H]3C(=O)N[C@H](C#N)C[C@@H]3CCCNC3=O)CC(F)(F)C4)cc12 (single isomer, unassigned) [723 (Isomer 1)]
system-name: COVID-19 (nCoV-2019, SARS-CoV2) Mpro (Severe acute respiratory syndrome coronavirus 2)
IC50: 10 to 30 µM

// switching to the query compound
-- ask What measured IC50 is associated with COC(=O)NS(=O)(=O)n1nccc1C(=O)NC(CC1CC1)C(=O)NC(C#N)CC1CCCNC1=O (single isomer, unassigned) [787A (Isomer 2)] on COVID-19 (nCoV-2019, SARS-CoV2) Mpro (Severe acute respiratory syndrome coronavirus 2)?
-- reply < 2 µM

---

- system-name: 229E Mpro (Human coronavirus 229E, UniProt P0C6X1)
- Construct: Mpro
- Sequence (P0C6X1 2966-3267): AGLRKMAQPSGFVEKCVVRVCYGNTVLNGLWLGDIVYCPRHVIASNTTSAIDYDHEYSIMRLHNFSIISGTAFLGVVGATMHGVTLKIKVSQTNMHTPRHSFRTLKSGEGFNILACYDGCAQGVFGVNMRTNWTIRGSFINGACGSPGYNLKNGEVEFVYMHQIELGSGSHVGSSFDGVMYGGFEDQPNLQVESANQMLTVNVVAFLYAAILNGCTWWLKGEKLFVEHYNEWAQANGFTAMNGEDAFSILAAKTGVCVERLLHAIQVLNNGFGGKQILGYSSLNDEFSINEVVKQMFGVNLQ
- assay-details: 229E Mpro assay (Table 3)
pEC50: −log10 of the molar value.
Listed compounds paired with reported pEC50

compound: N#C[C@H](C[C@@H]1CCNC1=O)NC(=O)[C@H](CC1CC1)NC(=O)c1cc2ccc(Cl)cc2[nH]1
pEC50: > 5.70

-- ask Reported pEC50 for N#C[C@H](C[C@@H]1CCNC1=O)NC(=O)[C@H](CC1CC1)NC(=O)c1nc2c(Cl)cc(Cl)cc2[nH]1 : what is it?
-- reply > 5.70

-- ask One more compound: COc1cccc2[nH]c(C(=O)NC(CC(C)(F)F)C(=O)NC(C#N)CC3CCNC3=O)cc12 (single isomer, unassigned) [497 (Isomer 2)]
-- reply > 5.70

-- ask One more compound: Cc1cc(C(=O)N[C@H]2CC[C@@H]3SC[C@@H](C(=O)N[C@H](C#N)C[C@@H]4CCNC4=O)N3C2=O)no1
-- reply < 4.52

---

- Tested on: Cell viability
quantity-kind: CC50

-- ask Reported CC50 for CC(C)CC(NC(=O)c1nc2ncccc2[nH]1)C(=O)NC(C#N)CC1CCNC1=O (single isomer, unassigned) [130 (Isomer 1)] : what is it?
-- reply > 30 µM

---

- system-name: 229E Mpro (Human coronavirus 229E)
- Construct: Mpro
- assay-details: 229E Mpro assay (Table 3)
Listed compounds paired with reported EC50

compound: COC(=O)NS(=O)(=O)n1nccc1C(=O)NC(CC1CC1)C(=O)NC(C#N)CC1CCCNC1=O (single isomer, unassigned) [787A (Isomer 2)]
assay-value: 2000 to 10000 nM
//
compound: CC1(C)CC(C[C@@H](C#N)NC(=O)[C@H](CC2CC2)NC(=O)c2cc3cccc(Cl)c3[nH]2)C(=O)N1 (single isomer, unassigned) [1053 (Isomer 3)]
assay-value: 2000 to 10000 nM
//
compound: N#C[C@H](C[C@@H]1CCNC1=O)NC(=O)[C@@H]1CS[C@H]2CC[C@H](NC(=O)OCc3ccccc3)C(=O)N21
assay-value: > 30000 nM
//
compound: N#C[C@H](C[C@@H]1CCNC1=O)NC(=O)[C@H](CC1CC1)NC(=O)c1cc2c(Cl)ccc(Cl)c2[nH]1
assay-value: < 2000 nM
//
compound: N#C[C@H](C[C@@H]1CCCNC1=O)NC(=O)[C@@H]1CC2(CN1C(=O)c1cc3cccc(Cl)c3[nH]1)CC(F)(F)C2 (single isomer, unassigned) [743 (Isomer 1)]
assay-value: > 30000 nM
//
compound: COc1cccc2[nH]c(C(=O)N[C@H](CC3CC3)C(=O)N[C@H](C#N)C[C@@H]3CCC(C)(C)NC3=O)cc12 (single isomer, unassigned; isomer 1) [787A (Isomer 1)]
assay-value: 2000 to 10000 nM
//
compound: COc1cccc2[nH]c(C(=O)N3CC4(C[C@H]3C(=O)N[C@H](C#N)C[C@@H]3CCCNC3=O)CC(F)(F)C4)cc12 (single isomer, unassigned) [723 (Isomer 2)]
assay-value: < 2000 nM
//
compound: COc1cc(Cl)c2[nH]c(C(=O)N[C@@H](CC3CC3)C(=O)N[C@H](C#N)C[C@@H]3CCNC3=O)cc2c1
assay-value: < 2000 nM

-- ask Reported EC50 for N#C[C@H](C[C@@H]1CCCNC1=O)NC(=O)[C@@H]1CC2(CN1C(=O)c1cc3cccc(Cl)c3[nH]1)CC(F)(F)C2 (single isomer, unassigned) [743 (Isomer 2)] : what is it?
-- reply < 2000 nM

-- ask One more compound: COc1cccc2[nH]c(C(=O)N3CC4(C[C@H]3C(=O)N[C@H](C#N)C[C@@H]3CCCNC3=O)CC(F)(F)C4)cc12 (single isomer, unassigned) [723 (Isomer 1)]
-- reply 10000 to 30000 nM

-- ask One more compound: CC1(C)CC(CC(C#N)NC(=O)C(CC2CC2)NC(=O)c2cc3cccc(Cl)c3[nH]2)C(=O)N1 (single isomer, unassigned) [1053 (Isomer 4)]
-- reply < 2000 nM

---

- system-name: COVID-19 (nCoV-2019, SARS-CoV2) Mpro (Severe acute respiratory syndrome coronavirus 2, UniProt P0DTD1)
pIC50: −log10 of the molar value.
Listed compounds paired with reported pIC50

# count of solved cases: 2
compound: N#C[C@H](C[C@@H]1CCCNC1=O)NC(=O)[C@@H]1CC2(CN1C(=O)c1cc3cccc(Cl)c3[nH]1)CC(F)(F)C2 (single isomer, unassigned) [743 (Isomer 2)]
pIC50: > 5.70
--
compound: COc1cccc2[nH]c(C(=O)N3CC4(C[C@H]3C(=O)N[C@H](C#N)C[C@@H]3CCCNC3=O)CC(F)(F)C4)cc12 (single isomer, unassigned) [723 (Isomer 2)]
pIC50: > 5.70

// switching to the query compound
-- ask Reported pIC50 for CC1(C)CCC(CC(C#N)NC(=O)[C@H](CC2CC2)NC(=O)c2cc3cccc(Cl)c3[nH]2)C(=O)N1 (single isomer, unassigned) [749A (Isomer 1)] : what is it?
-- reply > 5.70

Each recorded value in this set is attributed to patent US12145911B2.
